Recorded values, source patent EP2987533B1.

Would you kindly list CC50 for each of these compounds?
- Tested on: NSC lung cancer
- protocol_details: NCI five-dose SRB assay, subpanel average
- condition_summary: Homo sapiens, 48 h, read-out: LC50 (median lethal)

| compound | reported_metric | measured_value |
| --- | --- | --- |
| CCn1cc(C(=O)O)c(=O)c2cc(F)c(N3CCN(S(=O)(=O)c4ccc(Cl)cc4)CC3)cc21 | CC50 | > 100 µM |
| O=c1[nH]cc(F)c(=O)[nH]1 [Compound 5-FU, 5-fluorouracil, reference compound] | CC50 | > 100 µM |
| O=C(O)c1cn(C2CC2)c2cc(N3CCN(S(=O)(=O)c4ccc(Cl)c(Cl)c4)CC3)c(F)cc2c1=O | CC50 | > 100 µM |
| Cc1cc(C)c(S(=O)(=O)N2CCN(c3cc4c(cc3F)c(=O)c(C(=O)O)cn4C3CC3)CC2)c(C)c1 | CC50 | > 100 µM |
| CCn1cc(C(=O)O)c(=O)c2cc(F)c(N3CCN(S(=O)(=O)c4ccc(Cl)cc4Cl)CC3)cc21 | CC50 | 73.2 µM |

Switching to the query record.
Query (compound): CCn1cc(C(=O)O)c(=O)c2cc(F)c(N3CCN(S(=O)(=O)c4cccc5ccccc45)CC3)cc21 ; field requested: CC50
> 100 µM
